# Tested on: Wnt5a (protein binding on small-molecule microarray)
# assay details: small molecules binding Wnt5a protein – biophysical, small-molecule microarray, 635/667 nm fluorescence, primary screen (AID 1142);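 further: fluorescence read at 667 nm with signal to noise per printed feature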
# assay conditions: 635 nm fluorescence, higher = more signal
reported endpoint: composite z-score
Numbers only.

So for COCCOC(=O)N1C(=O)[C@@]2(c3cc(C#CCNC(N)=O)ccc31)[C@H](C(N)=O)[C@H]1C(=O)O[C@H](c3ccccc3)[C@H](c3ccccc3)N1[C@@H]2c1ccccc1OCCO , the logged composite z-score turned out to be 0.273

So for O=C1C2C=CC(C(O)c3cccc(O)c3)N(Nc3ccc([N+](=O)[O-])cc3)C2C(=O)N1c1ccccc1 (configuration not stated) , the logged composite z-score turned out to be 0.22

So for C=C[C@H]1C(C(=O)OCC)=CC[C@@H](c2ccccc2)N1S(=O)(=O)c1ccc(C)cc1 , the logged composite z-score turned out to be 0.197

So for COc1ccc([Si](C)(C)[C@@H]2[C@@H](CCO)O[C@]3(C(=O)N(Cc4ccccc4)c4ccc(N5C(=O)c6cccc7cccc5c67)cc43)[C@H]2C)cc1 , the logged composite z-score turned out to be -0.328

So for Cc1ccc(NN2C(C(O)c3c(F)cccc3Cl)C=CC3C(=O)N(C4CCCCC4)C(=O)C32)cc1 (configuration not stated) , the logged composite z-score turned out to be 0.361

So for CN1C(=O)C2C=CC(C(O)c3cccn3C)N(Nc3ccc([N+](=O)[O-])cc3[N+](=O)[O-])C2C1=O (configuration not stated) , the logged composite z-score turned out to be 0.28

Proceeding to the next compound to report its composite z-score.
So for C[N+](C)(C)CCCC[C@@H]1NC(=O)[C@@H]2C[C@H](C(=O)NCCCCCCN)[C@H](c3cccc(OCCO)c3)N2C1=O , the logged composite z-score turned out to be 0.397
